TARGET: human V1a receptor (Homo sapiens (Human), UniProt P37288)
Sequence (P37288 whole entry): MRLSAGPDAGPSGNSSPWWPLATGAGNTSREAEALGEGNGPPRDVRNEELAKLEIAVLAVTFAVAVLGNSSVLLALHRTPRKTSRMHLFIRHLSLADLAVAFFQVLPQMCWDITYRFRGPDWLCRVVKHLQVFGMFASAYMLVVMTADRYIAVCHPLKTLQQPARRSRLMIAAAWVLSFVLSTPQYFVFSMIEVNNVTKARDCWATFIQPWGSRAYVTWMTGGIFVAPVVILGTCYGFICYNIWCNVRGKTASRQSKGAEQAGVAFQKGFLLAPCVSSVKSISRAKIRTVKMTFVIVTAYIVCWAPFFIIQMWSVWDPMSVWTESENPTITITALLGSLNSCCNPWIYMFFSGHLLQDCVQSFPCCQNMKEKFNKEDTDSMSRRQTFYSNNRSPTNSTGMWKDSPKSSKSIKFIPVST
ASSAY NOTES: human V1a receptor binding studies (3H-Vasopressin, SPA beads)
RUN PARAMETERS: membranes of HEK293 cells transiently transfected with human V1a receptor, Ki by Cheng-Prusoff
ASSAY METRIC: pKi hV1a

Solved entries:
Cc1cccc2c1C(=O)OC21CCN(C2=NC(=O)C3(Cc4ccccc4C3)O2)CC1; 8.0
C[Si](C)(C)c1ccc2c(c1)CC1(C2)OC(N2CCC3(CC2)OCc2ccccc23)=NC1=O (centres unmarked); 6.2
O=C1OC2(CCN(C3=NC(=O)C4(Cc5ccccc5C4)O3)CC2)c2cccc(F)c21; 8.5
O=C1OC2(CCN(C3=NC(=O)C4(Cc5ccccc5C4)O3)CC2)c2ccc(Br)cc21; 8.4
O=C1N=C(N2CCC3(CC2)OCc2ccccc23)OC12Cc1cnc(CF)cc1C2 (centres unmarked); 7.6
O=C1N=C(N2CCC3(CC2)OCc2ncccc23)OC12Cc1ccccc1C2; 8.0

A = CC1(C)OC2(CCN(C3=NC(=O)C4(Cc5ccccc5C4)O3)CC2)c2ccccc21
B = O=C1OC2(CCN(C3=NC(=O)C4(Cc5ccccc5C4)O3)CC2)c2c1ccnc2Cl
Q. Dear colleague, could you let me know whether A or B has the lower recorded pKi hV1a? Thanks. Give the chosen item's label as your response.
A. B

###

TARGET: UniProt P37288
ASSAY NOTES: human V1a receptor binding studies (3H-Vasopressin, SPA beads)
RUN PARAMETERS: membranes of HEK293 cells transiently transfected with human V1a receptor, Ki by Cheng-Prusoff
ASSAY METRIC: pKi hV1a

Cc1ccc2c(c1)C1(CCN(C3=NC(=O)C4(Cc5ccccc5C4)O3)CC1)OC2=O; 8.8
Cc1cnc2c(c1)C1(CCN(C3=NC(=O)C4(Cc5ccccc5C4)O3)CC1)OC2; 8.3
O=C1OC2(CCN(C3=NC(=O)C4(Cc5ccccc5C4)O3)CC2)c2cc(O)c(O)cc21; 8.2
Cc1cnc2c(c1)C(=O)OC21CCN(C2=NC(=O)C3(Cc4ccccc4C3)O2)CC1; 7.6
O=C1N=C(N2CCC3(CC2)OCc2ccccc23)OC12Cc1ccccc1C2; 9.5
O=C1N=C(N2CCC3(CC2)OCc2ccccc23)OC12Cc1cnc(C(F)(F)F)cc1C2 (stereo not drawn); 8.5
CC1(C)OC2(CCN(C3=NC(=O)C4(Cc5ccccc5C4)O3)CC2)c2ccc[n+]([O-])c21; 7.3
CC1(C)OC2(CCN(C3=NC(=O)C4(Cc5ccccc5C4)O3)CC2)c2cc(O)cnc21; 10.2
Cc1cc2c(cn1)CC1(C2)OC(N2CCC3(CC2)OCc2ccccc23)=NC1=O (stereo not drawn); 7.7
